Reference source for all entries: patent US20190110476A1

- protocol_text: Measurement of LogP values by HPLC on reversed phase columns (EEC directive 79/831 Annex V.A8)
- Format: physicochemical
Marks after values point to notes of the source that are not given here.
Measured LogP of individual entries

compound	LogP
C[C@H](NC(=O)c1snc(N)c1C1CC1)C1CCCCC1	2.68[a]
COc1ccc(CNc2nsc(C(=O)NCc3ccc(OC(F)(F)F)cc3)c2Cl)cc1	4.15[a]
COc1ccc(CNc2nsc(C(=O)NCc3ccc(OC)c(F)c3)c2Cl)cc1	3.44[a]
Nc1nsc(C(=O)NCC2(F)CCCCC2)c1Cl	2.17[a]
CCCCC(=O)Nc1nsc(C(=O)NCC2CCCCC2)c1Cl	3.20[c]
O=C(NCc1ccc(Cl)cc1)c1snc(NC2CC2)c1Cl	3.07[a]
COc1ccc(CNC(=O)c2snc(N)c2Cl)c(F)c1	1.88[a]
COc1ccc(CNc2nsc(C(=O)NC(C)c3ccc(Cl)cc3Cl)c2Cl)cc1 (centres unmarked)	4.61[a]

Entry Nc1cc(C(=O)N(Cc2cc(Cl)cc(C(F)(F)F)c2)C2CC2)sn1 — recorded LogP = 3.11[a]

Entry Cc1ccc(F)c(CN(C(=O)c2cc(N)ns2)C2CC2)c1 — recorded LogP = 2.44[a]

Entry CC1(C)CCCCC1CNC(=O)c1snc(N)c1Cl (centres unmarked) — recorded LogP = 3.05[a]

----------
- protocol_text: Measurement of LogP values by HPLC on reversed phase columns (EEC directive 79/831 Annex V.A8)
- Type: physicochemical
endpoint_name: LogP [a]

Some molecules with known LogP [a] results, for comparison:
molecule	LogP [a]
O=C(NCC1CCCOC1)c1snc(Cl)c1Cl (stereo not shown) [E-II-005]	2.18^[a]
O=C(NCc1ccc(F)cc1F)c1snc(N=S2CCCC2)c1Cl [II-042]	1.64^[a]
O=C(NCC1CCOC1)c1snc(Cl)c1Cl (stereo not shown) [E-II-007]	1.84^[a]
CS(C)=Nc1nsc(C(=O)NCC2CCCC2)c1F [II-061]	0.32^[a]
CC(C)(C)OC(=O)c1snc(N)c1Cl [E-VII-003]	2.66^[a]

Entry O=C(NCC1CCCCC1)c1snc(N=S2CCOCC2)c1Cl [II-090] — recorded LogP [a] = 2.49^[a]

Entry O=C(NC1CCCC2CCCCC21)c1snc(Cl)c1Cl (stereo not shown) [E-II-012] — recorded LogP [a] = 5.34^[a]

----------
- protocol_text: Measurement of LogP values by HPLC on reversed phase columns (EEC directive 79/831 Annex V.A8)
- Format: physicochemical
Marks after values point to notes of the source that are not given here.
endpoint_name: LogP

Some compounds with known LogP results, for comparison:
compound	LogP
COc1ccc(CNc2nsc(C(=O)NCc3ccc(C)o3)c2Cl)cc1	3.27[a]
COc1cccc(CNC(=O)c2snc(N)c2Cl)c1Cl	2.23[a]
Nc1nsc(C(=O)NCC2CCC(C(F)(F)F)CC2)c1Cl (centres unmarked)	2.71[a]

Entry Nc1nsc(C(=O)NCC2CCCCC2Cl)c1Cl (centres unmarked) — recorded LogP = 2.44[a]

Entry C[C@H](NC(=O)c1snc(N)c1Cl)C1CCCCC1 — recorded LogP = 2.50[a]

----------
- protocol_text: Measurement of LogP values by HPLC on reversed phase columns (EEC directive 79/831 Annex V.A8)
- Assay type: physicochemical
Marks after values point to notes of the source that are not given here.
Measured LogP of individual entries

Some molecules with known LogP results, for comparison:
molecule	LogP
Cc1ccccc1NC(=O)c1snc(N)c1Cl [I-914]	2.08[a]
CC(=O)Nc1nsc(C(=O)N[C@@H](C)C2CCCCC2)c1Cl [I-097]	2.51[a]

Entry Nc1nsc(C(=O)NC2CCCCC2c2ccccc2)c1Cl (stereo not drawn) [I-287] — recorded LogP = 3.02[a]
